System: lipase
Assay: Lipase/lipolysis assay (EnzChek Lipase Substrate, quenched BODIPY-fatty acid conjugate) on stored human milk; further: test concentration or dose not given here
Define the label as Satisfied when Lipase (RFU) is strictly less than 1000 RFU and as Not satisfied in all remaining cases.

>  <molecule>
O=C(O)[C@@H]1CCN1 [L-Azetidine-2-carboxylic acid]

>  <target>
lipase

>  <label.value>
Satisfied

$$$$
>  <molecule>
CSCC[C@H](NC=O)C(=O)O [For-Met-OH]

>  <target>
lipase

>  <label.value>
Satisfied

$$$$
>  <molecule>
CC(C)[C@H](C)[C@@H](O)[C@H](O)[C@@H](C)[C@H]1CC[C@H]2[C@@H]3COC(=O)[C@H]4C[C@H](O)[C@H](O)C[C@]4(C)[C@H]3CC[C@]12C [Brassinolide]

>  <target>
lipase

>  <label.value>
Satisfied

$$$$
>  <molecule>
Cc1cc(O[C@@H]2O[C@H](CO)[C@@H](O)[C@H](O)[C@H]2O)c2c(c1)C(=O)c1cc(O)cc(O)c1C2=O [Emodin-8-glucoside]

>  <target>
lipase

>  <label.value>
Not satisfied

$$$$
>  <molecule>
CCCCC/C=C\C/C=C\CCCCCCCC(=O)O[C@H](COC(=O)CCCCCCCCCCCCCCCCC)COP(=O)([O-])OCC[N+](C)(C)C

>  <target>
lipase

>  <label.value>
Not satisfied

$$$$

###

Tested on: lipase
Assay: Lipase/lipolysis assay (EnzChek Lipase Substrate, quenched BODIPY-fatty acid conjugate) on stored human milk; further: test concentration or dose not given here
Reported Lipase (RFU) values for a set of compounds
property.measured: Lipase (RFU)

>  <compound>
CCCCCCCC/C=C\CCCCCCCC(=O)O[C@H]1CC[C@@]2(C)C(=CC[C@H]3[C@@H]4CC[C@H]([C@H](C)CCCC(C)C)[C@@]4(C)CC[C@@H]32)C1 [Cholesteryl oleate]

>  <property.measured>
Lipase (RFU)

>  <value.measured>
988.5488

$$$$
>  <compound>
CC1(C)CC[C@]2(C(=O)O)CC[C@]3(C)C(=CC[C@@H]4[C@@]5(C)C[C@H](O)[C@H](O)[C@@](C)(C(=O)O)[C@@H]5CC[C@]43C)[C@@H]2C1 [Medicagenic acid]

>  <property.measured>
Lipase (RFU)

>  <value.measured>
975.8957

$$$$
>  <compound>
Cn1cncc1C[C@H](NC(=O)CCN)C(=O)O [Anserine]

>  <property.measured>
Lipase (RFU)

>  <value.measured>
1023.923

$$$$
